Test system: L1210 leukemia ip in BDF1 mice, survival T/C
Test: NCI In Vivo Anticancer Drug Screen. Data for tumor model L1210 Leukemia (intraperitoneal) in B6D2F1 (BDF1) mice
Conditions: endpoint: mean survival time; dose: 75.0 mg/kg/injection; schedule: Q01DX001 (ip); vehicle: carboxymethylcellulose (CMC); higher = longer survival
Toxic doses and inconclusive results are not listed.
For each of the molecules below, state its T/C.

• C=CCC1(C(=C)C)C(=O)NC(=S)NC1=O = 95 % of control

Go through the items and report each one's T/C.
1. O=C(C[P+](c1ccccc1)(c1ccccc1)c1ccccc1)c1ccccc1
2. CN(C)CCS(=O)(=O)CCc1ccccc1
3. CCNC(=O)Nc1ncn[nH]1
4. O=[N+]([O-])c1ccc(CS(=O)Cc2ccccc2)cc1 (centres undefined)
5. CC(=O)N(C)C1=C(Sc2ccc(Cl)cc2)C(=O)c2ccccc2C1=O
6. CCOC(=O)CCOc1ccccc1N(CCCl)CCCl
7. O=C(c1ccccc1)C(Nc1ccccn1)c1ccccc1 (centres undefined)

Output:
1. 92 % of control
2. 106 % of control
3. 102 % of control
4. 91 % of control
5. 91 % of control
6. 112 % of control
7. 96 % of control

Input: For the molecule `Cc1[nH]nc(C(F)(F)F)c1N=NN1CCC(C(N)=O)CC1` , give its reported T/C.
Output: 95 % of control

====

Test system: L1210 leukemia ip in BDF1 mice, survival T/C
Assay: NCI In Vivo Anticancer Drug Screen. Data for tumor model L1210 Leukemia (intraperitoneal) in B6D2F1 (BDF1) mice
Conditions: endpoint: mean survival time; dose: 100.0 mg/kg/injection; schedule: Q04DX002 (ip); vehicle: Klucel (hydroxypropylcellulose) (HPC); higher = longer survival
Toxic doses and inconclusive results are not listed.
For each of the compounds below, state its T/C.

// solved cases for T/C follow
* NC(=O)NCN1C(=O)c2ccccc2C1=O | 100 % of control
* ClC(Cl)C1OCCOCCO1 | 97 % of control
* O=C(O)c1cc(Cl)cc(I)c1Br | 94 % of control
* C/C(=N\N=C(/C)c1c(C)c([N+](=O)[O-])c(C(C)(C)C)c([N+](=O)[O-])c1C)c1c(C)c([N+](=O)[O-])c(C(C)(C)C)c([N+](=O)[O-])c1C | 97 % of control
* ClC(CCC(Cl)c1ccccc1)c1ccccc1 (stereo unspecified) | 101 % of control

Go through the items and report each one's T/C.
1. O=C1OC(=O)C2C1C1CCC2(C2OCCO2)O1 (stereo unspecified)
2. CC(C)(C)c1cc(/C=N/NC(=O)CCCCCCCCC(=O)N/N=C/c2cc(C(C)(C)C)c(O)c(C(C)(C)C)c2)cc(C(C)(C)C)c1O

Output:
["93 % of control", "109 % of control"]

Go through the items and report each one's T/C.
1. CCCCc1c(C)nc(N)[nH]c1=O
2. Cc1cc(O)c(C(C)C)cc1C1=NCC(C)S1 (stereo unspecified)
3. O=C1OC(c2ccccc2)=N/C1=C\c1ccc([N+](=O)[O-])cc1
4. O=C(c1ccco1)C(O)c1ccco1 (stereo unspecified)

Output:
1: 104 % of control; 2: 100 % of control; 3: 92 % of control; 4: 96 % of control

Go through the items and report each one's T/C.
1. CCOC(=O)CNc1cccc(Cl)c1
2. CCOC(=O)CNc1cccc(Br)c1
3. COC(=O)c1ccc(C(=O)OC)nc1
4. Cc1cc(Cl)ccc1OC(=O)Nc1ccccc1Cl

Output:
["107 % of control", "107 % of control", "95 % of control", "103 % of control"]

====

Test system: L1210 leukemia ip in BDF1 mice, survival T/C
Experiment: NCI In Vivo Anticancer Drug Screen. Data for tumor model L1210 Leukemia (intraperitoneal) in B6D2F1 (BDF1) mice
Conditions: endpoint: mean survival time; dose: 100.0 mg/kg/injection; schedule: Q01DX009 (ip); vehicle: saline with Tween-80; higher = longer survival
Toxic doses and inconclusive results are not listed.
experimental.endpoint: T/C

// solved cases for T/C follow
* OC1(c2ccccc2)c2ccccc2-c2ccccc21 | 101 % of control
* ICC1COCC(CI)O1 (stereo not given) | 101 % of control
* O=C(Nc1ccsn1)c1ccc(Cl)cc1Cl | 91 % of control

Go through the items and report each one's T/C.
1. CCOc1ccc(/C=N/NC(=O)CC2CCCCC2)cc1OC
2. CCCNC(=O)Nc1ccc(C)cc1C

Output:
1. 90 % of control
2. 96 % of control

Go through the items and report each one's T/C.
1. COc1ccc(C=Nc2ccccc2N=Cc2ccc(OC)c(OC)c2)cc1OC
2. S=c1ncn(-c2ccccc2)[nH]1
3. C1C2OC2CC2OC12 (stereo not given)
4. COC(=O)C1Cc2ccccc2/C1=N\O (stereo not given)
5. CC(=O)NCC(S)c1ccc(Cl)cc1 (stereo not given)
6. COc1ccc(NC(C)=O)c(C)c1
7. COc1cc(N)nc(OC)n1

Output:
["106 % of control", "95 % of control", "95 % of control", "94 % of control", "103 % of control", "99 % of control", "98 % of control"]

====

System: L1210 leukemia ip in BDF1 mice, survival T/C
Assay: NCI In Vivo Anticancer Drug Screen. Data for tumor model L1210 Leukemia (intraperitoneal) in B6D2F1 (BDF1) mice
Settings: endpoint: mean survival time; dose: 50.0 mg/kg/injection; schedule: Q01DX009 (ip); vehicle: acetone; higher = longer survival
Inconclusive results and toxic doses are left out.
For each of the compounds below, state its T/C.

// solved cases for T/C follow
* C1CCCCCC(C2CCCCCCCCCCC2)CCCCC1 | 93 % of control
* COc1ccc(/C2=C/CCCCCC2)cc1 | 87 % of control
* C(=C/c1ccnc(/C=C/c2ccccc2)c1)/c1ccccc1 | 87 % of control

Shift focus to the following entry.
Input: For the compound `CC(C)=CBr` , give its reported T/C.
Output: 96 % of control

====

System: L1210 leukemia ip in BDF1 mice, survival T/C
Experiment: NCI In Vivo Anticancer Drug Screen. Data for tumor model L1210 Leukemia (intraperitoneal) in B6D2F1 (BDF1) mice
Settings: endpoint: mean survival time; dose: 100.0 mg/kg/injection; schedule: Q04DX003 (ip); vehicle: saline with Tween-80; higher = longer survival
Protocol: The antitumor activity of compounds was measured in mice bearing transplantable tumors. Survival or tumor size were measured and the results are expressed as the measurement made in the treated group (T) divided by the measurement made in the vehicle treated control group (C). The tumor model used in this assay is L1210 Leukemia (intraperitoneal) in B6D2F1 (BDF1) mice
Inconclusive results and toxic doses are left out.
experimental.endpoint: T/C

// solved cases for T/C follow
- CC1(c2ccc(Cl)s2)C(=O)N(Cl)C(=O)N1Cl (configuration not stated): 96 % of control
- CC(=O)OCC(O)C(O)C(O)C(O)CO (configuration not stated): 91 % of control
- CCN(CC)C(=O)Sc1ccc(SC(=O)N(CC)CC)cc1: 107 % of control

Go through the items and report each one's T/C.
1. CC1(C)C[N+](C)(Cc2ccccc2)C1
2. CCCCC/C(C)=N\Nc1ccccn1
3. CC1(C)CC(=O)C(C)(CCc2ccccc2)C(=O)C1
4. CCCCCCCCP(=O)(O)CCCCCCCC

Output:
1: 101 % of control; 2: 100 % of control; 3: 97 % of control; 4: 91 % of control

====

For each of the compounds below, state its T/C.
System: L1210 leukemia ip in BDF1 mice, survival T/C
Assay: NCI In Vivo Anticancer Drug Screen. Data for tumor model L1210 Leukemia (intraperitoneal) in B6D2F1 (BDF1) mice
Conditions: endpoint: mean survival time; dose: 400.0 mg/kg/injection; schedule: Q01DX009 (ip); vehicle: Klucel (hydroxypropylcellulose) (HPC); higher = longer survival
Toxic doses and inconclusive results are not listed.

// solved cases for T/C follow
• O=Cc1ccc(N2CCOCC2)cc1 = 97 % of control
• CN(CCNC(=O)Nc1ccccc1)c1ccccc1 = 105 % of control
• CNC(=S)NN=C(c1ccccc1)c1ccccc1 = 93 % of control
• Cc1ccc(C(=O)/C(=C/c2ccccc2)c2ccccc2)cc1 = 88 % of control
• C=C(C)COP(=O)(OCC(=C)C)OCC(=C)C = 103 % of control

Go through the items and report each one's T/C.
1. N#Cc1ccc(-c2ccc(C#N)cc2Br)c(Br)c1
2. O=C(/C=C/c1ccc(Cl)c(Cl)c1)c1ccccc1[N+](=O)[O-]
3. Cc1cc(OC(=O)Nc2cc(C(F)(F)F)ccc2Cl)cc(C)c1Cl
4. CCOc1ccc(NC(=O)Nc2cccc3ccccc23)cc1

Output:
1. 88 % of control
2. 92 % of control
3. 93 % of control
4. 86 % of control

Go through the items and report each one's T/C.
1. CC(C)C(O)c1cnc(OCc2ccccc2)nc1OCc1ccccc1 (stereo not given)
2. CC1(C)C2CCC1(C)C2C=O (stereo not given)
3. c1ccc2c(c1)NC1(CCCCC1)S2
4. COc1ccc([N+](=O)[O-])cc1NC(=O)Nc1ccc(I)cc1
5. COc1ccc(C(=O)NC(=S)Nc2ccc(I)cc2)cc1
6. Cc1ccc(NC(=O)Oc2cc(C)c(Cl)cc2C(C)C)cc1
7. CC(C)CCS(=O)(=O)OCCCCOS(=O)(=O)CCC(C)C
8. NC(=O)c1cc(Cl)ccc1OC(=O)Nc1ccccc1F

Output:
1: 101 % of control; 2: 96 % of control; 3: 91 % of control; 4: 103 % of control; 5: 91 % of control; 6: 100 % of control; 7: 109 % of control; 8: 98 % of control
